Test system: HEK-293T
Test: Multiplex assay against HEK293T
Type: toxicity, cell-based
Settings: human, 24 h, 10 µM, compound concentration 10 uM, replicate 1
quantityMeasured: Population Fragmented Nuclei (%)
Kindly write the number and append the unit.

Task: Give the reported value of Population Fragmented Nuclei (%) for this record: CN(C)C/C=C/C(=O)Nc1cc2c(Nc3ccc(F)c(Cl)c3)ncnc2cc1O[C@H]1CCOC1.O=C(O)/C=C\C(=O)O.O=C(O)/C=C\C(=O)O [AFATINIB DIMALEATE]
Output: 23%

Task: Give me measured Population Fragmented Nuclei (%), please, for this molecule: `CC(C)N1CCC(C)(C)c2cc(C#Cc3ccc(C(=O)O)cc3)ccc21`
Output: 56%

Task: In one line, give reported Population Fragmented Nuclei (%) of the entry `O=C(O)c1ccc2c(c1)nc(Nc1cccc(Cl)c1)c1ccncc12` .
Output: 14%

Task: Give the reported Population Fragmented Nuclei (%) for this molecule. `Cc1cc2c(cc1N1C(=O)c3cccc4c(CCCO)ccc(c34)C1=O)n(C)c(=O)n2C`
Output: 12%

Task: Give the measured Population Fragmented Nuclei (%) for CCC(=O)O[C@]1(C(=O)SCF)[C@H](C)C[C@H]2[C@@H]3C[C@H](F)C4=CC(=O)C=C[C@]4(C)[C@@]3(F)[C@@H](O)C[C@@]21C [FLUTICASONE PROPIONATE]
Output: 15%

Task: Item `c1ccc2oc(-c3csc(C4CCN(Cc5nc6ncccc6[nH]5)CC4)n3)cc2c1` : provide Population Fragmented Nuclei (%)
Output: 20%

Task: Check the records and state Population Fragmented Nuclei (%) for `CC(=O)c1cc(-c2cc(C(=O)NC3CC3)ccc2C)c2ncccn12`
Output: 18%

Task: Please list Population Fragmented Nuclei (%) recorded for the molecule `CNC(=O)c1cc(Oc2ccc(NC(=O)Nc3cc(C(C)(C)C)nn3-c3ccc4ncccc4c3)c(F)c2)ccn1`
Output: 14%

Task: Please report Population Fragmented Nuclei (%) for the following molecule: `Cl.Cl.NC1(c2ccc(-c3nc4ccn5c(=O)[nH]nc5c4cc3-c3ccccc3)cc2)CCC1`
Output: 40%

Task: Please report Population Fragmented Nuclei (%) for the following molecule: `CCOc1cc(N2CCC(O)CC2)ccc1Nc1ncc2c(n1)N(C1CCCC1)CCC(=O)N2C`
Output: 13%

Task: Please indicate Population Fragmented Nuclei (%) recorded for CC(C)Oc1ccc(C(=O)N[C@H](CNC(=O)CN(C)C)Cc2ccc(-c3cn4cccc([C@H](C)O)c4n3)cc2)cc1Cl [GSK-923295A]
Output: 19%

Task: State, in one line, measured Population Fragmented Nuclei (%) of `COc1cc2c(Nc3ccc(NC(=O)c4ccccc4)cc3)ncnc2cc1OCCCN1CCOCC1`
Output: 12%

Task: Hello, please tell me recorded Population Fragmented Nuclei (%) for this one: `CCOc1cc2ncc(C#N)c(Nc3ccc(OCc4cccc(F)c4)c(Cl)c3)c2cc1NC(=O)/C=C/CN(C)C`
Output: 12%

---

Can you tell me Population Fragmented Nuclei (%) for the items I'm about to list?
Test system: Fibroblast
Assay: Multiplex assay against human fibroblast
Format: toxicity, cell-based
Conditions: 24 h, 10 µM, compound concentration 10 uM, replicate 2
Use % as the unit, but write only the number.

Task: For the molecule Cc1nc(Cc2cccc(C(F)(F)F)c2)sc1-c1ccc(C(N)=O)nc1 [TP-024n] , report Population Fragmented Nuclei (%).
Output: 14

Task: Quick one: give measured Population Fragmented Nuclei (%) for `CCCn1c(=O)c2[nH]c(C34CC5CC(CC3C5)C4)nc2n(CCC)c1=O`
Output: 9

Task: Using known records, supply Population Fragmented Nuclei (%) for `CCOc1cc2ncc(C#N)c(Nc3ccc(OCc4cccc(F)c4)c(Cl)c3)c2cc1NC(=O)/C=C/CN(C)C`
Output: 69

Task: Quote Population Fragmented Nuclei (%) reported for `O=C(O)c1ccc2c(c1)nc(Nc1cccc(Cl)c1)c1ccncc12` please.
Output: 62

Task: Given the molecule `CNc1oc(-c2cccc3ccccc23)nc1C#N` , write its reported Population Fragmented Nuclei (%).
Output: 57

Task: Determine its reported Population Fragmented Nuclei (%): `Cc1cc2c(cc1N1C(=O)c3cccc4c(CCCO)ccc(c34)C1=O)n(C)c(=O)n2C`
Output: 18

Task: Give a short answer stating reported Population Fragmented Nuclei (%) for CCC(=O)O[C@]1(C(=O)SCF)[C@H](C)C[C@H]2[C@@H]3C[C@H](F)C4=CC(=O)C=C[C@]4(C)[C@@]3(F)[C@@H](O)C[C@@]21C [FLUTICASONE PROPIONATE] .
Output: 5

Task: Supply recorded Population Fragmented Nuclei (%) for `CN(C)CCOc1ccc(-c2nc(-c3ccncc3)c(-c3ccc4c(c3)CC/C4=N\O)[nH]2)cc1` here.
Output: 70
